- Test Protocol: in-vivo PK profile, rat PK
- Particulars: in vivo; Sprague-Dawley rat, PO 5 mg/kg
Observation Type: half-life

Data point: CCN1CCN(c2ccc(Nc3cc(-n4c(Nc5c(Cl)c(OC)cc(OC)c5Cl)nc5ccccc54)ncn3)cc2)CC1 ; half-life = 9.14 h

----------
- System Name: CYP2C9 (Homo sapiens, UniProt P11712)
- Sequence (P11712 whole entry): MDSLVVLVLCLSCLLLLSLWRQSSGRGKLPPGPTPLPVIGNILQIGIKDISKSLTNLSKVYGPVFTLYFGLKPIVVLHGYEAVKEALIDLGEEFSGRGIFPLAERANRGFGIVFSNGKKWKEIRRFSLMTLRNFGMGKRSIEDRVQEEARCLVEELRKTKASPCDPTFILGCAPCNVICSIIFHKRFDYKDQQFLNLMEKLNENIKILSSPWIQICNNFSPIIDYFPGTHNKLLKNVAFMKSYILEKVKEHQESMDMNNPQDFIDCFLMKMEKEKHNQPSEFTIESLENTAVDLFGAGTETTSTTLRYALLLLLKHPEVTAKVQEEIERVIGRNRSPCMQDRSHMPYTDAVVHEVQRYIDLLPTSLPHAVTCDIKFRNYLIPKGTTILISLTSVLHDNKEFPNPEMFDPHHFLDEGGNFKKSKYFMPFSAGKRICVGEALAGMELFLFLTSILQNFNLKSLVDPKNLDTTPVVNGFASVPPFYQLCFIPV
- Test Protocol: inhibition activity against CYPs (cytochromes P450)
- Type: in vitro ADME
- Particulars: human; concentration 0.1 μM
Observation Type: inhibition at 0.1 µM (%)
Numbers only here, please. The scale is %.

Data point: CCN1CCN(c2ccc(Nc3cc(-n4c(Nc5c(Cl)c(OC)cc(OC)c5Cl)nc5ccccc54)ncn3)cc2)CC1 ; inhibition at 0.1 µM = 10.3
